The reported measurements were obtained from PubChem BioAssay AID2599.

Subject of test: Sentrin-specific protease 6 (Homo sapiens)
Procedure summary: SENP6 protease inhibitors, primary screen, biochemical, luminescence, uHTS (AID 2599)
Test context: Recombinant SENP6 catalytic domain, aminoluciferin luminescence; at 10 µM
In all, about 330,000 compounds went through this assay and about 5,800 (1.8%) were called active.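 Rule for the calls: active = inhibition above about 50% at the single tested dose (limit read from the data); inactive = the rest.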 The list comes from a sample in which actives are over-represented; it also holds close analogues and randomly drawn compounds.
Labels: True (active), False (inactive)

- COc1cc(Cn2c(N)c(C(=O)NCc3ccco3)c3nc4ccccc4nc32)cc(OC)c1OC: True
- O=[N+]([O-])c1cnc2ccc3ccccc3c2c1: False
- O=c1[nH]c(=O)n(-c2ccc(F)cc2)c(O)c1C=NCCN1CCCCC1: False
- CCOC(=O)c1c(N)n(Cc2ccccc2)c2nc3ccccc3nc12: False
- Cc1cc2ccccn2c1C(C[N+](=O)[O-])c1c(F)cccc1Cl (stereo unspecified): False
- CCCCCCCCCCCCn1ccc(=N)cc1: False
